- assayExplanation: Stability of estrogen quinones at various pH (remaining quinone by HPLC)
- Assay type: physicochemical
- experimentalSetup: pH 3, citric acid; read-out: t1/2 (time when 1/2 of the original quinone concentration was observed by HPLC)

- compound: "C[C@]12CC[C@@H]3C4=CC(=O)C(=O)C=C4CC[C@H]3[C@@H]1CCC2=O [E1-2,3-Q]"
  half-life, h: 1.17

----------
- assayExplanation: Stability of estrogen quinones at various pH (remaining quinone by HPLC)
- Format: physicochemical
- experimentalSetup: pH 9, trisHCl; read-out: t1/2 (time when 1/2 of the original quinone concentration was observed by HPLC)
measuredAttribute: half-life

- molecule: "C[C@]12CC[C@@H]3C4=CC(=O)C(=O)C=C4CC[C@H]3[C@@H]1CCC2=O [E1-2,3-Q]"
  measuredAttribute: "half-life"
  assayValue: "< 5 min"

Just for reference, patent US5952183A is where these values come from.
